- Subject of test: T1, Human IL-11 (human, UniProt P20809 22-199)
- T1 construct: Recombinant human IL-11 (GenScript Cat. No. Z03108-1) or IL-11 secreted by human cells; the mature form is said to have 178 residues; also called recombinant human IL-11; endogenously produced IL-11
- T1 sequence: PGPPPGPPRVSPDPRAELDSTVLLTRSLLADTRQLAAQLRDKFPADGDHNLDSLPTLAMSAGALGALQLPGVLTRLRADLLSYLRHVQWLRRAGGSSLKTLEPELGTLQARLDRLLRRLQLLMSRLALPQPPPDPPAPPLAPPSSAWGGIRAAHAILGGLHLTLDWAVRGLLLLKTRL
- Assay explanation: SPR, Single Cycle Kinetics, BIAcore T200; human IL-11 immobilised on CM5 chip, antibody in IgG1 format as analyte, 1:1 model
Entries and their measured kon follow.
Value kind: kon (M⁻¹ s⁻¹)

Binder: 01V (antibody, IgG1, V domains shown, C91V variant of the YU100-H01 VL) VH: QVQLVQSGGGVVQPGRSLRLSCAASGFTFSSYAMHWVRQAPGKGLEWVAVISYDGSNKYYADSVKGRFTISRDNSKNTLYLQMNSLRAEDTAVYYCARIMGYDYGDYDVVDYWGQGTLVTVSS VL: QSALTQPRSVSGSPGQSVTISCTGTSSDVGAYNYVSWYQQHPGKAPKLMIYDVSERPSGVPDRFSGSKSGNTASLTISGLQAEDEADYYCVSYAGSYTWVFGGGTKLTVLG
Unit string: M⁻¹ s⁻¹
Recorded value: 9190

Binder: 01G (antibody, IgG1, V domains shown, C91G variant of the YU100-H01 VL) VH: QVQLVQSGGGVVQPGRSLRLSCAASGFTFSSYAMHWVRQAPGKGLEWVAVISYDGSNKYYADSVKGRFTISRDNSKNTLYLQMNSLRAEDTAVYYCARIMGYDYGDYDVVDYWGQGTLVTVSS VL: QSALTQPRSVSGSPGQSVTISCTGTSSDVGAYNYVSWYQQHPGKAPKLMIYDVSERPSGVPDRFSGSKSGNTASLTISGLQAEDEADYYCGSYAGSYTWVFGGGTKLTVLG
Unit string: M⁻¹ s⁻¹
Recorded value: 1760

Binder: YU100-H01 (antibody, human IgG1, V domains shown, Light chain shuffled human antibody; Only the variable domains are tied to the clone) VH: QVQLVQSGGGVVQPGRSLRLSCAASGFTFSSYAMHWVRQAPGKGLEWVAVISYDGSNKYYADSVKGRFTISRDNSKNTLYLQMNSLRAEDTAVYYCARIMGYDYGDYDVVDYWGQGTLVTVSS VL: QSALTQPRSVSGSPGQSVTISCTGTSSDVGAYNYVSWYQQHPGKAPKLMIYDVSERPSGVPDRFSGSKSGNTASLTISGLQAEDEADYYCCSYAGSYTWVFGGGTKLTVLG
Unit string: M⁻¹ s⁻¹
Recorded value: 14800

Binder: 01I (antibody, IgG1, V domains shown, C91I variant of the YU100-H01 VL) VH: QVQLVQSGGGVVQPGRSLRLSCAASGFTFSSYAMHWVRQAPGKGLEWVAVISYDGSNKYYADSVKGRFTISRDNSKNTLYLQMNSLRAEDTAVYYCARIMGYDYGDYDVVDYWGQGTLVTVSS VL: QSALTQPRSVSGSPGQSVTISCTGTSSDVGAYNYVSWYQQHPGKAPKLMIYDVSERPSGVPDRFSGSKSGNTASLTISGLQAEDEADYYCISYAGSYTWVFGGGTKLTVLG
Unit string: M⁻¹ s⁻¹
Recorded value: 92100

Binder: 01S (antibody, IgG1, V domains shown, C91S variant of the YU100-H01 VL) VH: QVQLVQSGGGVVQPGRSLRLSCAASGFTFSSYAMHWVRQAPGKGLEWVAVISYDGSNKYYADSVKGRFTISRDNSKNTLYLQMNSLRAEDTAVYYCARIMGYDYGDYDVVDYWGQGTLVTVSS VL: QSALTQPRSVSGSPGQSVTISCTGTSSDVGAYNYVSWYQQHPGKAPKLMIYDVSERPSGVPDRFSGSKSGNTASLTISGLQAEDEADYYCSSYAGSYTWVFGGGTKLTVLG
Unit string: M⁻¹ s⁻¹
Recorded value: 8470
